These entries and their values trace back to PubChem BioAssay AID463229.

Test system: INS-1E rat beta cells, no cytokines, CellTiter-Glo ATP, 48 h
Test: cytokine-free beta-cell viability effect – INS-1E rat cells, ATP luminescence, cherry pick, counter-screen for beta-cell apoptosis protection project, dose response (AID 463229);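 active = compounds raising the signal whose fitted half-maximal concentration is at or below their top tested dose (cut at about 25 µM in these data); inconclusive = flat fit at 30 to 70% activity, or a poor fit; inactive = the rest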
Bench note: report the call from true (1) = active, false (0) = inactive

Take a look at these entries with their results.
# compound, classification
records = [
    ("CCCCNc1c(-c2ccc(-c3cccc(Cl)c3)cc2)nc2ccccn12", "true (1)"),
    ("CCCCCc1cc(=O)oc2c(C(CCN3CCCC(C)C3)c3cc(OC)c(OC)c(OC)c3)c(OC)cc(OC)c12 (configuration not stated)", "true (1)"),
]

q: So what was the verdict on `C=C1CCc2c([nH]c3ccc(OCC(C)C)cc23)C1=O` in this test?
a: true (1)

q: So what was the verdict on `Cc1cc2nc(-c3ccc(NC(=O)c4cccnc4)cc3)oc2cc1C` in this test?
a: true (1)

q: So what was the verdict on `O=C(NCc1nc(-c2ccc(C(F)(F)F)cc2)no1)Nc1cc(Cl)cc(Cl)c1` in this test?
a: true (1)

q: So what was the verdict on `COc1ccc(CNC(=O)c2c(C)oc3c2C(=O)c2ccccc2C3=O)cc1` in this test?
a: true (1)

q: So what was the verdict on `N#C/C(=N\Nc1ccc(Cl)cc1)C(=O)c1ccccc1` in this test?
a: true (1)

###

Tested on: INS-1E rat beta cells, no cytokines, CellTiter-Glo ATP, 48 h
Experiment: cytokine-free beta-cell viability effect – INS-1E rat cells, ATP luminescence, cherry pick, counter-screen for beta-cell apoptosis protection project, dose response (AID 463229)
readout_kind: AC50

q: Entry `Cc1ccc(OCCN2CCN(c3ncnc4sc(C)c(C)c34)CC2)cc1` has what AC50?
a: 4.03 µM

q: Entry `CCN(CC)CCC(=O)Nc1cccc2c1C(=O)c1ccccc1C2=O` has what AC50?
a: 12 µM

q: Entry `COc1cccc(/C=N/Nc2nc3ccccc3n3cnnc23)c1O` has what AC50?
a: 7.23 µM

###

System: INS-1E rat beta cells, no cytokines, CellTiter-Glo ATP, 48 h
Assay: cytokine-free beta-cell viability effect – INS-1E rat cells, ATP luminescence, cherry pick, counter-screen for beta-cell apoptosis protection project, dose response (AID 463229)
Property: AC50; scope: individual compounds

Study these solved cases before continuing.
# compound, target_or_system, assay_result
rows = [
    ("N#CC(c1cccc(Cl)c1)c1ccc2c(C(F)(F)F)cc(C(F)(F)F)nc2n1 (stereo not given)", "INS-1E rat beta cells, no cytokines, CellTiter-Glo ATP, 48 h", "0.868 µM"),
    ("Cc1cccc(NC2=C/C(=N/S(=O)(=O)c3cccs3)c3ccccc3C2=O)c1", "INS-1E rat beta cells, no cytokines, CellTiter-Glo ATP, 48 h", "3.97 µM"),
    ("O=S(=O)(c1ccc(NC(=S)NCc2cccnc2)cc1)N1CCCCC1", "INS-1E rat beta cells, no cytokines, CellTiter-Glo ATP, 48 h", "1.62 µM"),
]

q: Entry CCCCCCC(=O)N1C/C=C\C(c2ccc(OC)cc2)N(Cc2ccc(F)cc2)C(=O)[C@H]1Cc1ccccc1 (stereo not given in full) has what AC50?
a: 5.73 µM

q: Entry `NC(N)=N/N=C/c1cn(-c2ccccc2)nc1-c1cccs1` has what AC50?
a: 14.2 µM

###

Tested on: INS-1E rat beta cells, no cytokines, CellTiter-Glo ATP, 48 h
Assay: cytokine-free beta-cell viability effect – INS-1E rat cells, ATP luminescence, cherry pick, counter-screen for beta-cell apoptosis protection project, dose response (AID 463229)
readout_kind: AC50

Study these solved cases before continuing.
# compound, assay_result
measured = [
    ("O=C1C(Cl)=C(Nc2ccc3cn[nH]c3c2)C(=O)c2ccccc21", "4.47 µM"),
    ("CCN1CCN(CCCNC(=O)c2ccc3c(c2)NC(=O)/C(=C\\c2cccc(C)c2)S3)CC1", "12.3 µM"),
    ("Oc1cccc(C(Nc2nccs2)c2ccc3cccnc3c2O)c1 (stereo unspecified)", "2.54 µM"),
    ("CCN1/C(=C/C(C)=C/c2sc3ccccc3[n+]2CC)Sc2ccccc21", "< 0.195 µM"),
    ("CC(C)NC(=S)N/N=C/c1cc(Br)ccc1O", "12.6 µM"),
]

// next entry
q: Entry `Cc1cccc2cc(-c3ccccc3)c(-c3ccccc3)c[n+]12` has what AC50?
a: 4.21 µM

###

Property: AC50; scope: individual compounds
Test system: INS-1E rat beta cells, no cytokines, CellTiter-Glo ATP, 48 h
Test: cytokine-free beta-cell viability effect – INS-1E rat cells, ATP luminescence, cherry pick, counter-screen for beta-cell apoptosis protection project, dose response (AID 463229)

q: Entry `Nc1c(N(CCC2=CCCCC2)C(=O)COc2ccc(F)cc2)c(=O)[nH]c(=O)n1Cc1ccccc1` has what AC50?
a: 4.49 µM

###

Test system: INS-1E rat beta cells, no cytokines, CellTiter-Glo ATP, 48 h
Assay: cytokine-free beta-cell viability effect – INS-1E rat cells, ATP luminescence, cherry pick, counter-screen for beta-cell apoptosis protection project, dose response (AID 463229)
Activity calls are given as the source filed them.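 Rule for the calls: active = compounds raising the signal whose fitted half-maximal concentration is at or below their top tested dose (cut at about 25 µM in these data); inconclusive = flat fit at 30 to 70% activity, or a poor fit; inactive = the rest.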
Bench note: report the call from Yes (active), No (inactive)

Take a look at these entries with their results.
# compound, classification
records = [
    ("CC(C)C[C@H]1CN=C(Nc2ccccc2)N1CCc1ccc(F)cc1", "No"),
    ("O=C(N/N=C/c1cc(Br)cc(Br)c1O)c1ccncc1", "Yes"),
    ("CCOc1ccc(-n2c(-c3ccc(OC)cc3)c[n+]3c2CCCCC3)cc1", "Yes"),
    ("N#Cc1c2ccc([N+](=O)[O-])cc2[n+]([O-])n1-c1ccccc1", "Yes"),
    ("CCN1/C(=C/c2ccc3cc(C)ccc3[n+]2CC)Sc2ccc3sccc3c21", "Yes"),
    ("Cc1ccc(C(C)C)c(OCc2ccc(C(=O)N/N=C/c3cccc(O)c3O)cc2)c1", "Yes"),
]

q: So what was the verdict on `O=C(NN=C(c1ccccc1)c1ccccn1)c1ccccc1` in this test?
a: Yes

q: So what was the verdict on `C=C1C(=O)O[C@@H]2C[C@@H](C)[C@@H]3C=CC(=O)[C@@]3(C)[C@@H](OC(C)=O)[C@H]12` in this test?
a: Yes

q: So what was the verdict on Cc1ccc(C2=CC(c3ccc(N(C)C)cc3)n3nnnc3N2)cc1 (stereo not given) in this test?
a: Yes

q: So what was the verdict on `CN(C)c1cc[n+](CC(=O)c2ccc(-c3ccccc3)cc2)cc1` in this test?
a: Yes

###

Property: AC50; scope: individual compounds
System: INS-1E rat beta cells, no cytokines, CellTiter-Glo ATP, 48 h
Assay: cytokine-free beta-cell viability effect – INS-1E rat cells, ATP luminescence, cherry pick, counter-screen for beta-cell apoptosis protection project, dose response (AID 463229)

Study these solved cases before continuing.
# compound, target_or_system, readout_kind, assay_result
measured = [
    ("O=C(Nc1cccc(NC(=O)c2ccccc2Cl)c1)c1ccc([N+](=O)[O-])o1", "INS-1E rat beta cells, no cytokines, CellTiter-Glo ATP, 48 h", "AC50", "7.58 µM"),
    ("CCN(CC)S(=O)(=O)c1ccc(N/N=C/c2cc(OC)ccc2O)nc1", "INS-1E rat beta cells, no cytokines, CellTiter-Glo ATP, 48 h", "AC50", "4.24 µM"),
    ("Cc1ccc(C)c(S(=O)(=O)N2CCN(Cc3ccc(O)c4ncccc34)CC2)c1", "INS-1E rat beta cells, no cytokines, CellTiter-Glo ATP, 48 h", "AC50", "5.74 µM"),
]

q: Entry `CCCCCCCCCCn1ccc(=N)cc1` has what AC50?
a: 0.543 µM

q: Entry `COc1ccc(OC)c2sc(N(CCCN(C)C)C(=O)c3ccc(S(=O)(=O)N4CCc5ccccc5C4)cc3)nc12` has what AC50?
a: 2.23 µM

q: Entry `CCCCCCc1cc2cc(C(=O)Nc3ccccc3)c(=O)oc2cc1O` has what AC50?
a: 3.24 µM

q: Entry CC(CCCC(C)(C)O)NC(=O)c1cc(COc2ccc3ncccc3c2)on1 (configuration not stated) has what AC50?
a: 8.48 µM

q: Entry CCS(=O)(=O)c1ncc(Cl)c(C(=O)Nc2ccc(S(=O)(=O)N3CCCC(C)C3)cc2)n1 (configuration not stated) has what AC50?
a: 6.96 µM

q: Entry `COc1ccc(-c2cn(-c3ccc(OC)cc3)c3[n+]2-c2ccccc2CC3)cc1` has what AC50?
a: 0.806 µM

q: Entry `O=C(Cc1ccc(Cl)cc1)c1c[nH]c(C(=O)NCc2cccnc2)c1` has what AC50?
a: 0.665 µM

###

Test system: INS-1E rat beta cells, no cytokines, CellTiter-Glo ATP, 48 h
Experiment: cytokine-free beta-cell viability effect – INS-1E rat cells, ATP luminescence, cherry pick, counter-screen for beta-cell apoptosis protection project, dose response (AID 463229)
Property: AC50; scope: individual molecules

Study these solved cases before continuing.
# item_smiles, AC50
rows = [
    ("COC(=O)c1c(C)oc2ccc(N(C(=O)c3ccncc3)S(=O)(=O)c3ccc4ccccc4c3)cc12", "17.9 µM"),
    ("O=C(N/N=C/c1cc(Br)c(Br)s1)c1ccncc1", "9.72 µM"),
]

q: Entry `N/C(=N\OC(=O)c1cccc(Cn2cc(C(F)(F)F)ccc2=O)c1)c1ccc(Cl)cc1` has what AC50?
a: 8.25 µM

q: Entry `COc1ccc(CCNc2c(C)c(C)nc3ncnn23)cc1` has what AC50?
a: 3.68 µM

q: Entry `COc1cc(CSc2nnnn2-c2ccc(C)cc2)cc(OC)c1OC` has what AC50?
a: 4.46 µM

q: Entry `Cc1ccc(NS(=O)(=O)c2ccc(NC(=O)CN(c3cc([N+](=O)[O-])ccc3C)S(C)(=O)=O)cc2)c(C)c1` has what AC50?
a: 1.86 µM

q: Entry `CC(=O)/C=C/n1c(=S)oc2ccccc21` has what AC50?
a: 8.87 µM

q: Entry `c1ccc(CNc2c(-c3cccc(SC4CCCCC4)c3)nc3ccccn23)cc1` has what AC50?
a: 2.98 µM

q: Entry `COc1ccc(Cn2c(SCc3ccc(C)cc3)nc3cc(OC)c(OC)cc3c2=N)cc1Cl` has what AC50?
a: 6.89 µM

q: Entry `CC(C)c1ccccc1-n1c(SCC(=O)N2CCc3ccccc3C2)nc2ccccc2c1=O` has what AC50?
a: 2.42 µM
